MIC reference
Test system: Staphylococcus epidermidis sp-al-1
experiment_notes: Antimicrobial activity (minimum inhibitory concentration)
Format: cell-based
assay_setup: SPAL1; Staphylococcus epidermidis sp-al-1, about 10^6 /ml
Reply with just the number (in µg/mL).

Solved cases below.
>  <compound>
CCC1OC(=O)CC(O)C(C)C(OC2OC(C)CC(N(C)C)C2O)C(CC=O)CC(C)C(OC)C=CC(C)=CC1COC1OC(C)C(O)C(OC)C1OC (centres unmarked) [Compound 6, 9-dihydro-9-O-methyl-4'-deoxydesmycosin]

>  <MIC (µg/mL)>
0.1

$$$$
>  <compound>
CCC(=O)OC1CC(=O)OC(CC)C(COC2OC(C)C(O)C(OC)C2OC)C=C(C)C=CC(OC)C(C)CC(CC=O)C(OC2OC(C)C(O)C(N(C)C)C2O)C1C (centres unmarked)

>  <MIC (µg/mL)>
0.2

$$$$

Q. Would you mind telling me what MIC value was observed for CCC1OC(=O)CC(O)C(C)C(OC2OC(C)CC(N(C)C)C2O)C(CC=O)CC(C)C(OC)C=CC(C)=CC1CN(C)C (centres unmarked) ?
A. 0.2

Q. CCCOC1C=CC(C)=CC(COC2OC(C)C(O)C(OC)C2OC)C(CC)OC(=O)CC(OC(C)=O)C(C)C(OC2OC(C)C(O)C(N(C)C)C2O)C(CC=O)CC1C (centres unmarked) , same question.
A. 0.78

Q. CCOC1C=CC(C)=CC(COC2OC(C)C(O)C(OC)C2OC)C(CC)OC(=O)CC(O)C(C)C(OC2OC(C)C(O)C(N(C)C)C2O)C(CC=O)CC1C (centres unmarked) [Compound 2, 9-dihydro-9-O-ethyldesmycosin] , same question.
A. 0.1
